Each entry below carries its reported furin cleavage Z-score.
biological target: furin, P09958; assay: furin cleavage Z-score vs untreated control; higher = more cleavage, active = 3.5 or more, inactive = 1 or less, 8 variable residues between constant flanks; details: 30 min;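 further: purified furin at 1:10 enzyme:substrate in 50 mM HEPES pH 7.5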
Sequence (P09958 whole entry): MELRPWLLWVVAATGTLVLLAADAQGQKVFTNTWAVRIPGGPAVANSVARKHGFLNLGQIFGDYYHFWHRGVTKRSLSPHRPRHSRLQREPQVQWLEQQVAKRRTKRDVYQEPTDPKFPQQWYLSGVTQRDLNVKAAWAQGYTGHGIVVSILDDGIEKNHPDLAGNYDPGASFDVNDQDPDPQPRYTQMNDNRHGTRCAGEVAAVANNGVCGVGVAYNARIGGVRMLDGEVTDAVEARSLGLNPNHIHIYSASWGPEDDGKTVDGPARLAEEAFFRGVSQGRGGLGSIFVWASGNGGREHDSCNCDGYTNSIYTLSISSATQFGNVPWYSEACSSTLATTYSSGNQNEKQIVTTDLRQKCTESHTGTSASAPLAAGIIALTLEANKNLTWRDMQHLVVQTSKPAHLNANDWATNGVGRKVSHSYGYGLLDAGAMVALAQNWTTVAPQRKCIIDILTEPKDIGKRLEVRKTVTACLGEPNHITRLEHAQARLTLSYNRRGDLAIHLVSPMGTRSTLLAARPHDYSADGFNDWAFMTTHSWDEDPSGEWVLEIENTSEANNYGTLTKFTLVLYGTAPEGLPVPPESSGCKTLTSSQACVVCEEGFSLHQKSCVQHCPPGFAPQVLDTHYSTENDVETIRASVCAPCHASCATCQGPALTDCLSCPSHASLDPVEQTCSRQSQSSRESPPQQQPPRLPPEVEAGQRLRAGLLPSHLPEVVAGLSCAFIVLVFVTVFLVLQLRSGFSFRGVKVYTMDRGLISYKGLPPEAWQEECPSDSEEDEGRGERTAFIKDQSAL
Some of the results follow. The true hit rate is not given.

| chain | furin cleavage Z-score |
| --- | --- |
| CARQCRSSQGAGNASASA [FS-2288] | 1.21 |
| CALNNRQIRGAGNASASA [FS-1136] | 5.04 |
| CASTPCSAHMAGNASASA [HC2566] | 1.83 |
| CAYFVRVQGLAGNASASA [HC616] | 0.654 |
